Molecular target: GLP-1 receptor
Experiment: cell-based or functional assay
Ends that are not written are not given here.
Readout Type: In Vitro Activity (% of Val^8-GLP-1(7-37)OH)

{"Binder": "HVEGTFTSDLSKQMEEEAVRLFIAWLVKGRG", "Obs Value": "2.86 % of Val^8-GLP-1(7-37)OH"}
{"Binder": "HVEGTFTSDLSKQMEGQAAKEFIAWLVKGRG", "Obs Value": "0.11 % of Val^8-GLP-1(7-37)OH"}
{"Binder": "HGEGTFTSDLSKQMEGQAAKEFIEWLKNGGP-NH2 [HGEGTFTSDLSKQMEGQAAKEFIEWLKNGGP-NH2]", "Obs Value": "1.44 % of Val^8-GLP-1(7-37)OH"}
